*1 amine or outer side, *2 acyl side, *3 side chain or, on linkers, in order; H or OH if unused. Where a SMILES comes first, the peptide text is derived from it. [ ]: non-standard residue; d: D form. The star is where a group is joined. ξ: configuration not given here. Fluorescein(5-NHCS) = O=C1OC2(c3ccc(O)cc3Oc3cc(O)ccc32)c2cc(NC(=S)*)ccc21; X21 = O=C([C@@H]1[C@@H](O/N=C\c2cnc3ccccc3c2)CCN1[*:1])[*:2]; X20 = O=C(O)CC/C=N\O[C@H]1CCN([*:1])[C@@H]1C(=O)[*:2]; X35 = O=C([C@@H]1C[C@H](O/N=C\c2ccoc2)CN1[*:1])[*:2]; ξPip = O=C(O)C1CCCCN1; Ava = NCCCCC(=O)O
# pIC50 measurements, system: Tumor susceptibility gene 101 protein (Homo sapiens)
# Sequence (Q99816 whole entry): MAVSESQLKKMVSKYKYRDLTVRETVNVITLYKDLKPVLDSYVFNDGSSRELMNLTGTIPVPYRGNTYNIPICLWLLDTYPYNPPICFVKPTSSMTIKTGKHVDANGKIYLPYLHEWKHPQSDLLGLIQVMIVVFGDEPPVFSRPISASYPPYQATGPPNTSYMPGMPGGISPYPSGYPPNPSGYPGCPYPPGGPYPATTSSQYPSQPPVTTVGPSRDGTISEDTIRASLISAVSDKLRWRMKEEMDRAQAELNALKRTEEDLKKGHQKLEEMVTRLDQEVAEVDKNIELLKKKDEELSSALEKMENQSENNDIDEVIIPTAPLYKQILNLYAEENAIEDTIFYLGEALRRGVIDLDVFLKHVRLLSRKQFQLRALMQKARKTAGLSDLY
Field pIC50 (float): negative decimal logarithm of the concentration in molar.

- Compound: "C[C@H](NC(=O)[C@@H](NC(=O)[C@@H]1CCCN1C(=O)[C@H](CCC(=O)O)NC(=O)[C@@H]1CCCN1C(=O)CCCCNC(=S)Nc1ccc2c(c1)C1(OC2=O)c2ccc(O)cc2Oc2cc(O)ccc21)[C@@H](C)O)C(=O)N1CCCCC1C(=O)N1CC[C@H](O/N=C\\CCC(=O)O)[C@H]1C(=O)N[C@@H](CCC(=O)O)C(=O)N[C@@H](CCC(=O)O)C(N)=O (stereo partly drawn) ({Fluorescein(5-NHCS)-Ava}-PEPTA[ξPip][X20]EE-NH2)"
  Target or system: "Tumor susceptibility gene 101 protein (Homo sapiens)"
  Readout value: 4.80
- Compound: "C[C@H](NC(=O)[C@@H](NC(=O)[C@@H]1CCCN1C(=O)[C@H](CCC(=O)O)NC(=O)[C@@H]1CCCN1C(=O)CCCCNC(=S)Nc1ccc2c(c1)C1(OC2=O)c2ccc(O)cc2Oc2cc(O)ccc21)[C@@H](C)O)C(=O)N1CCCCC1C(=O)N1CC[C@H](O/N=C\\c2cnc3ccccc3c2)[C@H]1C(=O)N[C@@H](CCC(=O)O)C(=O)N[C@@H](CCC(=O)O)C(N)=O (stereo partly drawn) ({Fluorescein(5-NHCS)-Ava}-PEPTA[ξPip][X21]EE-NH2)"
  Target or system: "Tumor susceptibility gene 101 protein (Homo sapiens)"
  Readout value: 4.72

Now for another entry.
# returns recorded pIC50 (system: Tumor susceptibility gene 101 protein (Homo sapiens)) for C[C@H](NC(=O)[C@@H](NC(=O)[C@@H]1CCCN1C(=O)[C@H](CCC(=O)O)NC(=O)[C@@H]1CCCN1C(=O)CCCCNC(=S)Nc1ccc2c(c1)C1(OC2=O)c2ccc(O)cc2Oc2cc(O)ccc21)[C@@H](C)O)C(=O)N1CCCCC1C(=O)N1C[C@@H](O/N=C\c2ccoc2)C[C@H]1C(=O)N[C@@H](CCC(=O)O)C(=O)N[C@@H](CCC(=O)O)C(N)=O (stereo partly drawn) ({Fluorescein(5-NHCS)-Ava}-PEPTA[ξPip][X35]EE-NH2)
4.32
